- test_system: Human Fc (human)
- test_method_notes: ELISA; negative control
readout: optical density (OD)
Could you give me the number in OD? Just the number is fine.

Below, each entry is followed by its recorded optical density result.
>>> assay_value("374_G05 (antibody, V domains shown) VH: EVQLLESGGGLVQPGGSLRLSCAASGFTFSSYSMNWVRQAPGKGLEWVSNINYNSGYKGYADSVKGRFTISRDNSKNTLYLQMNSLRAEDTAVYYCARGATWHDTHLDYWGQGTLVTVSS VL: DIQMTQSPSSLSASVGDRVTITCRASQSIISYLNWYQQKPGKAPKLLIYAATSRASGVPSRFSGSGSGTDFTLTISSLQPEDFATYYCQQSYDLPLTFGGGTKVEIK")
0.158
>>> assay_value("368_D02 (antibody, V domains shown) VH: EVQLLESGGGLVQPGGSLRLSCAASGFTFDDYGMNWVRQAPGKGLEWVSNINYNGGYTGYADSVKGRFTISRDNSKNTLYLQMNSLRAEDTAVYYCARGATWHDTHLDYWGQGTLVTVSS VL: DIQMTQSPSSLSASVGDRVTITCRASQSISTYLNWYQQKPGKAPKLVIYAATSRHSGVPSRFSGSGSGTDFTLTISSLQPEDFATYYCQQSYDTPLTFGGGTKVEIK")
0.321

According to the records, this binder 369_C12 (antibody, V domains shown) VH: EVQLLESGGGLVQPGGSLRLSCAASGFTFSSYGMNWVRQAPGKGLEWVANINYNGGYKGYADSVKGRFTISRDNSKNTLYLQMNSLRAEDTAVYYCARGATWHDTHLDYWGQGTLVTVSS VL: DIQMTQSPSSLSASVGDRVTITCRASQSILTYLNWYQQKPGKAPKLLIYAATSRHSGVPSRFSGSGSGTDFTLTISSLQPEDFATYYCQQSYDTPLTFGGGTKVEIK displays optical density of 0.418
